target: h-jak3 (JAK3: Recombinant human kinase domain) (Homo sapiens); construct: JAK3: Recombinant human kinase domain from Millipore (Cat # 14-629); assay: Determination of IC50 of Janus Kinase (JAK) inhibition, radioactive end-point 33P-ATP assay, JAK3
Sequence (P52333 822-1111 limits assumed): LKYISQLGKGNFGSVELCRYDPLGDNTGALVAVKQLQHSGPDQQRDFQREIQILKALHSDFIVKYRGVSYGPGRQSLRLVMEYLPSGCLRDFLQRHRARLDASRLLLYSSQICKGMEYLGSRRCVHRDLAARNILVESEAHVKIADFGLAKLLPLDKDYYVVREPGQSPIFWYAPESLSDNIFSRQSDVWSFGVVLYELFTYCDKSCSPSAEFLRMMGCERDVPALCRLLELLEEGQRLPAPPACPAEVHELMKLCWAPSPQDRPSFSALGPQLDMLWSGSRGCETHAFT
pIC50: −log10 of the molar value.
Measured parameter: pIC50

{"Molecule": "C[C@H]1CCCC[C@H]1c1nnc2cnc3[nH]ccc3n12", "Assay value": 7.16}

a = CCS(=O)(=O)N1CCC(C)[C@H](c2ccc3cnc4[nH]ccc4n23)C1 (stereo in doubt)
b = CC1CCCCN1c1ccc2cnc3[nH]ccc3n12 (centres unmarked)
*Q* Please tell me which of the two, a or b , has the higher reported pIC50 value. # reply format: chosen label
*A* b

P = c1cc2c(ncc3ccc(C4CCCCC4)n32)[nH]1
Q = CCS(=O)(=O)N1CC[C@@H](C)[C@@H](c2nnc3cnc4[nH]ccc4n23)C1
R = c1cc2c(ncc3cnc(C4CCCCC4)n32)[nH]1
S = c1cc2c(ncc3nnc(C4CCCCC4)n32)[nH]1
*Q* rank_up(items): orders items by reported pIC50 in ascending numerical order. Note for the reader: the ranking is given by listing the labels in the order requested.
*A* S, Q, R, P
